B1: library; a variant is named by its letters at N, in order (parent)
chain: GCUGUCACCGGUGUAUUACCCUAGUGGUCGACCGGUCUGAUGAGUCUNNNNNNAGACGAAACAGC

- Variants of: B1
- protocol-summary: normalized RNA/DNA level without ligand (relative to sTRSVctl = 100) (log10 (% of sTRSVctl)); ligand: hypoxanthine (xanthine aptamer); higher = less ribozyme self-cleavage, higher mRNA level
- reported-conditions: HEK293T, reporter: mCherry (pCS4076), ligand present: no
property-name: normalized RNA/DNA level without ligand (log10)
Numbers only.

Consider the worked cases shown below.
monomer_sequence="GCUGUCACCGGUGUAUUACCCUAGUGGUCGACCGGUCUGAUGAGUCUCUAAUCAGACGAAACAGC [CUAAUC]" value_measured=1.9
monomer_sequence="GCUGUCACCGGUGUAUUACCCUAGUGGUCGACCGGUCUGAUGAGUCUUGGUGCAGACGAAACAGC [UGGUGC]" value_measured=1.86
monomer_sequence="GCUGUCACCGGUGUAUUACCCUAGUGGUCGACCGGUCUGAUGAGUCUUGCGCCAGACGAAACAGC [UGCGCC]" value_measured=1.93
monomer_sequence="GCUGUCACCGGUGUAUUACCCUAGUGGUCGACCGGUCUGAUGAGUCUGGCGCAAGACGAAACAGC [GGCGCA]" value_measured=1.89

Please report normalized RNA/DNA level without ligand (log10) for every entry that follows.
1. GCUGUCACCGGUGUAUUACCCUAGUGGUCGACCGGUCUGAUGAGUCUGAGUGCAGACGAAACAGC [GAGUGC]
2. GCUGUCACCGGUGUAUUACCCUAGUGGUCGACCGGUCUGAUGAGUCUGCGCCUAGACGAAACAGC [GCGCCU]
3. GCUGUCACCGGUGUAUUACCCUAGUGGUCGACCGGUCUGAUGAGUCUCUUAGAAGACGAAACAGC [CUUAGA]
4. GCUGUCACCGGUGUAUUACCCUAGUGGUCGACCGGUCUGAUGAGUCUCGCAUAAGACGAAACAGC [CGCAUA]
5. GCUGUCACCGGUGUAUUACCCUAGUGGUCGACCGGUCUGAUGAGUCUUGCUCUAGACGAAACAGC [UGCUCU]

1: 1.5; 2: 1.78; 3: 1.85; 4: 1.69; 5: 1.95

Please look at the items below and tell me normalized RNA/DNA level without ligand (log10) for each one, in order.
1. GCUGUCACCGGUGUAUUACCCUAGUGGUCGACCGGUCUGAUGAGUCUGCAUCUAGACGAAACAGC [GCAUCU]
2. GCUGUCACCGGUGUAUUACCCUAGUGGUCGACCGGUCUGAUGAGUCUAUAUAAAGACGAAACAGC [AUAUAA]

[1.87, 1.77]

List the reported normalized RNA/DNA level without ligand (log10) of each variant below.
1. GCUGUCACCGGUGUAUUACCCUAGUGGUCGACCGGUCUGAUGAGUCUAGGGGCAGACGAAACAGC [AGGGGC]
2. GCUGUCACCGGUGUAUUACCCUAGUGGUCGACCGGUCUGAUGAGUCUGUACACAGACGAAACAGC [GUACAC]
3. GCUGUCACCGGUGUAUUACCCUAGUGGUCGACCGGUCUGAUGAGUCUAAAAUCAGACGAAACAGC [AAAAUC]
4. GCUGUCACCGGUGUAUUACCCUAGUGGUCGACCGGUCUGAUGAGUCUGUCCAUAGACGAAACAGC [GUCCAU]

1. 1.86
2. 1.79
3. 1.92
4. 1.85

Need normalized RNA/DNA level without ligand (log10) for each of these variants.
1. GCUGUCACCGGUGUAUUACCCUAGUGGUCGACCGGUCUGAUGAGUCUAACGAGAGACGAAACAGC [AACGAG]
2. GCUGUCACCGGUGUAUUACCCUAGUGGUCGACCGGUCUGAUGAGUCUCACGCCAGACGAAACAGC [CACGCC]
3. GCUGUCACCGGUGUAUUACCCUAGUGGUCGACCGGUCUGAUGAGUCUUAGGUCAGACGAAACAGC [UAGGUC]
4. GCUGUCACCGGUGUAUUACCCUAGUGGUCGACCGGUCUGAUGAGUCUUCGUCUAGACGAAACAGC [UCGUCU]
5. GCUGUCACCGGUGUAUUACCCUAGUGGUCGACCGGUCUGAUGAGUCUAUGCUCAGACGAAACAGC [AUGCUC]

1.22
1.84
1.95
1.87
1.98

Hey, quick one: what's normalized RNA/DNA level without ligand (log10) for each of these?
1. GCUGUCACCGGUGUAUUACCCUAGUGGUCGACCGGUCUGAUGAGUCUACUUUCAGACGAAACAGC [ACUUUC]
2. GCUGUCACCGGUGUAUUACCCUAGUGGUCGACCGGUCUGAUGAGUCUAGUUGUAGACGAAACAGC [AGUUGU]

1. 1.95
2. 1.63
